System: AAMU-Ab
Protocol notes: Competitive antigen ELISA, cross-reactivity of AAMU-Ab
Assay type: binding, rabbit
Details: competitive antigen ELISA; 0 = absence of inhibition or inhibition no higher than 40% at highest concentration tested (5×10^−3 M)
Observable: % Cross-Reaction AAMU-Ab (%)
One number for each entry, in %.

# example entries with known answers
CC(=O)Nc1c(N)n(C)c(=O)[nH]c1=O [5-Acetamino-6-amino-1-methyluracil]    100
Cc1nc2[nH]c(=O)[nH]c(=O)c2[nH]1 [8-Methyl Xanthine]    0

Consider the record given below.
[ask] I'd like to know its % Cross-Reaction AAMU-Ab. The compound in question is Cn1c(=O)[nH]c2nc[nH]c2c1=O [1-Methyl Xanthine (1X), 1-Methyl Xanthine]
[reply] 0

###

For each of the compounds below, state its % Cross-Reaction AAMU-Ab.
System: AAMU-Ab
Protocol notes: Competitive antigen ELISA, cross-reactivity of AAMU-Ab
Type: binding, rabbit
Details: competitive antigen ELISA; 0 = absence of inhibition or inhibition no higher than 40% at highest concentration tested (5×10^−3 M)
Give bare numbers, in %.

# example entries with known answers
O=c1[nH]cnc2nc[nH]c12 [Hypoxanthine]    0
Cn1c(=O)[nH]c2[nH]c(=O)n(C)c2c1=O [1,7-Dimethyluric acid]    0
Cn1c(=O)[nH]c2[nH]c(=O)[nH]c2c1=O [1-Methyluric acid]    0

Please look at the items below and tell me % Cross-Reaction AAMU-Ab for each one, in order.
1. Cn1c(=O)c2[nH]cnc2n(C)c1=O [1,3-Dimethyl Xanthine (Theophylline), 1,3-Dimethyl Xanthine]
2. Cn1cnc2c1c(=O)[nH]c(=O)n2C [3,7-Dimethyl Xanthine (Theobromine), 3,7-Dimethyl Xanthine]

[reply]
1: 0; 2: 0

Where these numbers come from: patent US20030186339A1
